The measured values listed here are drawn from BigSolDB 2.1.

- TEST_SETTINGS: in ethanol, 293.15 K
VALUE_KIND: solubility (mole fraction)
I only need the number, thanks.

Recorded solubility (mole fraction) of Cc1ccc2cc(Br)ccc2n1 , please.
0.00151

====

- TEST_SETTINGS: in ethyl acetate, 283.15 K
VALUE_KIND: solubility (mole fraction)
I only need the number, thanks.

Recorded solubility (mole fraction) of Cc1ccc2cc(Br)ccc2n1 , please.
0.00844

====

- TEST_SETTINGS: in acetonitrile, 313.15 K
VALUE_KIND: solubility (mole fraction)

Recorded solubility (mole fraction) of Cc1ccc2cc(Br)ccc2n1 , please.
0.0182

====

- TEST_SETTINGS: in methanol, 288.15 K
VALUE_KIND: solubility (mole fraction)
I only need the number, thanks.

Recorded solubility (mole fraction) of Cc1ccc2cc(Br)ccc2n1 , please.
0.000319

====

- TEST_SETTINGS: in methanol, 308.15 K
VALUE_KIND: solubility (mole fraction)
I only need the number, thanks.

Recorded solubility (mole fraction) of Cc1ccc2cc(Br)ccc2n1 , please.
0.000613

====

- TEST_SETTINGS: in isopropanol, 283.15 K
VALUE_KIND: solubility (mole fraction)

Recorded solubility (mole fraction) of Cc1ccc2cc(Br)ccc2n1 , please.
0.00229

====

- TEST_SETTINGS: in acetonitrile, 288.15 K
VALUE_KIND: solubility (mole fraction)
I only need the number, thanks.

Recorded solubility (mole fraction) of Cc1ccc2cc(Br)ccc2n1 , please.
0.00855

====

- TEST_SETTINGS: in isopropanol, 313.15 K
VALUE_KIND: solubility (mole fraction)
I only need the number, thanks.

Recorded solubility (mole fraction) of Cc1ccc2cc(Br)ccc2n1 , please.
0.00608

====

- TEST_SETTINGS: in toluene, 298.15 K
VALUE_KIND: solubility (mole fraction)
I only need the number, thanks.

Recorded solubility (mole fraction) of Cc1ccc2cc(Br)ccc2n1 , please.
0.0155

====

- TEST_SETTINGS: in water, 318.15 K
VALUE_KIND: solubility (mole fraction)
I only need the number, thanks.

Recorded solubility (mole fraction) of Cc1ccc2cc(Br)ccc2n1 , please.
2.48e-05

====

- TEST_SETTINGS: in n-propanol, 323.15 K
VALUE_KIND: solubility (mole fraction)

Recorded solubility (mole fraction) of Cc1ccc2cc(Br)ccc2n1 , please.
0.00914

====

- TEST_SETTINGS: in DMF, 308.15 K
VALUE_KIND: solubility (mole fraction)
I only need the number, thanks.

Recorded solubility (mole fraction) of Cc1ccc2cc(Br)ccc2n1 , please.
0.0137

====

- TEST_SETTINGS: in toluene, 323.15 K
VALUE_KIND: solubility (mole fraction)

Recorded solubility (mole fraction) of Cc1ccc2cc(Br)ccc2n1 , please.
0.0332

====

- TEST_SETTINGS: in DMF, 313.15 K
VALUE_KIND: solubility (mole fraction)
I only need the number, thanks.

Recorded solubility (mole fraction) of Cc1ccc2cc(Br)ccc2n1 , please.
0.0161

====

- TEST_SETTINGS: in acetonitrile, 318.15 K
VALUE_KIND: solubility (mole fraction)
I only need the number, thanks.

Recorded solubility (mole fraction) of Cc1ccc2cc(Br)ccc2n1 , please.
0.0213

====

- TEST_SETTINGS: in ethanol, 318.15 K
VALUE_KIND: solubility (mole fraction)
I only need the number, thanks.

Recorded solubility (mole fraction) of Cc1ccc2cc(Br)ccc2n1 , please.
0.00334
